Molecular target: AMPK 221 (Homo sapiens, UniProt O43741+P54646)
Construct: open reading frames encoding the full-length α2, β2 and δ1 subunits of human AMPK; made in house; host or cells: E. coli BL21-CodonPlus (DE3)-RIPL, pET-14b
Sequence (P54646 whole entry): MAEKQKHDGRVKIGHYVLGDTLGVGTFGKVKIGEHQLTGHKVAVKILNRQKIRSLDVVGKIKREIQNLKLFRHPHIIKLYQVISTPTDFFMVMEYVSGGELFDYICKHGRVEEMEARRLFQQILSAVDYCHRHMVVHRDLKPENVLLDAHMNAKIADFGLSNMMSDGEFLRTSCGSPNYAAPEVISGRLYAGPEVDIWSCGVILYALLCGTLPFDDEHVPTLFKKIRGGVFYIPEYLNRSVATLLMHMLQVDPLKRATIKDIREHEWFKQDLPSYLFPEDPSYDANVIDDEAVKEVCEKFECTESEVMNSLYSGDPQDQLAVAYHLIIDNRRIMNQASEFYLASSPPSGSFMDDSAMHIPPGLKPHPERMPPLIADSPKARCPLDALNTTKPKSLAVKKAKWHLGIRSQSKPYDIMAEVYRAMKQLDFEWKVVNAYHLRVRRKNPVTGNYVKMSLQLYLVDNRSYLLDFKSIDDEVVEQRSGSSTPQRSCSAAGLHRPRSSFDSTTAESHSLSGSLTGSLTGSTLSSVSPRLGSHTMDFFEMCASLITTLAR
Sequence (O43741 whole entry): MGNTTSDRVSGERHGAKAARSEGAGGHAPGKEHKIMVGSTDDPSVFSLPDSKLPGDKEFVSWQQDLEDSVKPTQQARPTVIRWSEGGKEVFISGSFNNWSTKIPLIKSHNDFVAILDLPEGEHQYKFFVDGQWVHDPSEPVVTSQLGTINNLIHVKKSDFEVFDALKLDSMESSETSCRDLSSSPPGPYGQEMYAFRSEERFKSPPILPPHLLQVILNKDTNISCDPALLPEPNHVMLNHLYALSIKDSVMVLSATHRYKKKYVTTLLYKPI
Sequence (P54619 whole entry partner): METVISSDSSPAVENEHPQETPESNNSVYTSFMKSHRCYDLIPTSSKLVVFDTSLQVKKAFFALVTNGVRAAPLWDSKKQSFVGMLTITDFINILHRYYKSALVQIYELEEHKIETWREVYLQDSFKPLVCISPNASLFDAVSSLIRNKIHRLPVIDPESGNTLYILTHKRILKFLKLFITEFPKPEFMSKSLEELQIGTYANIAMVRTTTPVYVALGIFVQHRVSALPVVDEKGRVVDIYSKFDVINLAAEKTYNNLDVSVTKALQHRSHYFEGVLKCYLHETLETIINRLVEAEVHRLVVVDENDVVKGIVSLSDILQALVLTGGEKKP
Test: Biochemical profiling of AMPK activators by AMPK221 (HTRF/TR-FRET assay, SAMS peptide, PP2A dephosphorylation protection)
Conditions: phosphorylated AMPK 221; maximal activation
Description: The biochemical EC50 (half-maximal concentration required for full activation) of compounds for the activation of AMPK was evaluated by HTRF assay using LANCE Ultra ULight-Acetyl-CoA Carboxylase (SAMS) peptide (commercially available, Perkin Elmer catalog TRF0133-M). […]
Item-by-item account of Emax
// unit must come after the numeric part

These recorded examples may help you get a feel for the data.
[
  {
    "MOLECULE": "CNC(=O)c1ccc(-c2ccc(-c3cc4c(CCC(=O)O)n[nH]c4cc3Cl)cc2)cc1",
    "Emax": "53%"
  },
  {
    "MOLECULE": "O=C(O)CCc1n[nH]c2cc(Cl)c(-c3ccc(-c4ccc(OC(F)F)cc4O)cc3)cc12",
    "Emax": "58%"
  },
  {
    "MOLECULE": "NCc1ccc(-c2ccc(-c3cc4c(CCC(=O)O)n[nH]c4cc3Cl)cc2)c(O)c1",
    "Emax": "56%"
  },
  {
    "MOLECULE": "CC(=O)N(C)c1ccc(-c2ccc(-c3cc4c(CCC(=O)O)n[nH]c4cc3Cl)cc2)cc1",
    "Emax": "59%"
  },
  {
    "MOLECULE": "CC(C)Oc1cccc(-c2ccc(-c3cc4c(CCC(=O)O)n[nH]c4cc3Cl)cc2)c1O",
    "Emax": "52%"
  },
  {
    "MOLECULE": "O=C(O)CCc1n[nH]c2cc(Cl)c(-c3ccc(-c4ccc5c(c4O)OCC5)cc3)cc12",
    "Emax": "69%"
  }
]

QUERY: Name the reported Emax value associated with the compound CS(=O)(=O)c1ccc(-c2ccc(-c3cc4c(CCC(=O)O)n[nH]c4cc3Cl)cc2)cc1
RESULT: 52%

QUERY: Name the reported Emax value associated with the compound CSc1ccc(-c2ccc(-c3cc4c(CCC(=O)O)n[nH]c4cc3Cl)cc2)c(O)c1
RESULT: 64%

###

Item-by-item account of Emax
Biological target: AMPK 111 (Homo sapiens, UniProt Q13131+Q9Y478)
Construct: open reading frames encoding the full-length α1, β1 and δ1 subunits of human AMPK; made in house; host or cells: E. coli BL21-CodonPlus (DE3)-RIPL, pET-14b
Sequence (Q13131 whole entry): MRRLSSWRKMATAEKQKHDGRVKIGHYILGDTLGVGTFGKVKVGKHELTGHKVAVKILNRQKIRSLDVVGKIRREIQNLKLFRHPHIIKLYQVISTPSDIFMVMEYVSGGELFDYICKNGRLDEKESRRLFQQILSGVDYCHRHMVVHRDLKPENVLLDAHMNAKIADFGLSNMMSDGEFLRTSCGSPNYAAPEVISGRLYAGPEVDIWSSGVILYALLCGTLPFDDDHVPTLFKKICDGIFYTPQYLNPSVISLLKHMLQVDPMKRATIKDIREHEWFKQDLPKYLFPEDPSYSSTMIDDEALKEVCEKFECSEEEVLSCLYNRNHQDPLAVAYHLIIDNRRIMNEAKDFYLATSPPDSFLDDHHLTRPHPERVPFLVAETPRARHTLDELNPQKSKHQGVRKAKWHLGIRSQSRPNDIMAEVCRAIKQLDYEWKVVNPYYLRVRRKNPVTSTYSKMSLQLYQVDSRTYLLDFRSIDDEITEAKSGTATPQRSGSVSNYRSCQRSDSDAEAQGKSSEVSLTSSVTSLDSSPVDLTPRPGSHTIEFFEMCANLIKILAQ
Sequence (Q9Y478 whole entry): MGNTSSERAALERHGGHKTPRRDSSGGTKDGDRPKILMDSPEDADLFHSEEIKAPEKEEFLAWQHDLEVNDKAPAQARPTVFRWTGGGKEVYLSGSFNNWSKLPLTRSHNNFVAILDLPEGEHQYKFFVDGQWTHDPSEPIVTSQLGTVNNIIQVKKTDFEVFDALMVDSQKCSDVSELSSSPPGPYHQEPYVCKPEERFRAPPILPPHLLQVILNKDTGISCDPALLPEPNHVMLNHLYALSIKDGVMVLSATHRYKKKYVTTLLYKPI
Sequence (P54619 whole entry partner): as the sequence (P54619 whole entry partner) above
Test: Biochemical profiling of AMPK activators by AMPK111 (HTRF/TR-FRET assay, SAMS peptide, PP2A dephosphorylation protection)
Conditions: phosphorylated AMPK 111; maximal activation
Procedure: The biochemical EC50 (half-maximal concentration required for full activation) of compounds for the activation of AMPK was evaluated by HTRF assay using LANCE Ultra ULight-Acetyl-CoA Carboxylase (SAMS) peptide (commercially available, Perkin Elmer catalog TRF0133-M). Following a fifteen-minute room temperature incubation, 5 μL of 30 nM protein phosphatase PP2A (isolation detailed above) diluted in the assay buffer was added to the plate, to dephosphorylate pThr172 of AMPK. […]
// note: answer is a bare numeric in %

These recorded examples may help you get a feel for the data.
[
  {
    "COMPOUND": "CN(C)C(=O)c1ccc(-c2ccc(-c3cc4c(CCC(=O)O)n[nH]c4cc3Cl)cc2)cc1 [Example 29]",
    "OBS VALUE": 72
  },
  {
    "COMPOUND": "CC(=O)N(C)c1ccc(-c2ccc(-c3cc4c(CCC(=O)O)n[nH]c4cc3Cl)cc2)cc1 [Example 39]",
    "OBS VALUE": 69
  },
  {
    "COMPOUND": "COc1ccc(-c2ccc(-c3cc4c(CCC(=O)O)n[nH]c4cc3Cl)cc2)c(O)c1 [Example 21]",
    "OBS VALUE": 65
  },
  {
    "COMPOUND": "O=C(O)CCc1n[nH]c2cc(Cl)c(-c3ccc(-c4cc(F)ccc4O)cc3)cc12 [Example 70]",
    "OBS VALUE": 74
  },
  {
    "COMPOUND": "O=C(O)CSc1n[nH]c2cc(Cl)c(-c3ccc(-c4ccccc4O)cc3)cc12 [Example 11]",
    "OBS VALUE": 62
  },
  {
    "COMPOUND": "COc1cccc(-c2ccc(-c3cc4c(CCCC(=O)O)n[nH]c4cc3Cl)cc2)c1O [Example 74]",
    "OBS VALUE": 80
  },
  {
    "COMPOUND": "Cc1cncc(O)c1-c1ccc(-c2cc3c(CCC(=O)O)n[nH]c3cc2Cl)cc1 [Example 27]",
    "OBS VALUE": 87
  },
  {
    "COMPOUND": "NS(=O)(=O)c1ccc(-c2ccc(-c3cc4c(CCC(=O)O)n[nH]c4cc3Cl)cc2)c(O)c1 [Example 9]",
    "OBS VALUE": 90
  }
]

QUERY: Name the reported Emax value associated with the compound Cc1cscc1-c1ccc(-c2cc3c(CCC(=O)O)n[nH]c3cc2Cl)cc1 [Example 60]
RESULT: 53

QUERY: Name the reported Emax value associated with the compound Cc1cc(C)c(-c2ccc(-c3cc4c(CCC(=O)O)n[nH]c4cc3Cl)cc2)c(O)c1 [Example 18]
RESULT: 84

QUERY: Name the reported Emax value associated with the compound COc1cccc(-c2ccc(-c3cc4c(CCC(=O)O)n[nH]c4cc3Cl)cc2)c1O [Example 2]
RESULT: 80

QUERY: Name the reported Emax value associated with the compound O=C(O)CCc1n[nH]c2cc(Cl)c(-c3ccc(-c4ccccc4O)cc3)cc12 [Example 1]
RESULT: 75

QUERY: Name the reported Emax value associated with the compound NC(=O)CSc1ccc(-c2ccc(-c3cc4c(CCC(=O)O)n[nH]c4cc3Cl)cc2)cc1 [Example 17]
RESULT: 80

QUERY: Name the reported Emax value associated with the compound O=C(O)CCc1n[nH]c2cc(Cl)c(-c3ccc(-c4csc(CO)n4)cc3)cc12 [Example 66]
RESULT: 74

QUERY: Name the reported Emax value associated with the compound COc1cc(F)cc(-c2ccc(-c3cc4c(CCC(=O)O)n[nH]c4cc3Cl)cc2)c1O [Example 42]
RESULT: 68

QUERY: Name the reported Emax value associated with the compound CS(=O)(=O)Nc1ccc(-c2ccc(-c3cc4c(CCC(=O)O)n[nH]c4cc3Cl)cc2)cc1 [Example 32]
RESULT: 71

QUERY: Name the reported Emax value associated with the compound O=C(O)CCc1n[nH]c2cc(Cl)c(-c3ccc(-c4cccc(F)c4O)cc3)cc12 [Example 22]
RESULT: 74

QUERY: Name the reported Emax value associated with the compound O=C(O)CCc1n[nH]c2cc(Cl)c(-c3ccc(-c4cccc(CO)c4)cc3)cc12 [Example 61]
RESULT: 55

QUERY: Name the reported Emax value associated with the compound NCc1ccc(-c2ccc(-c3cc4c(CCC(=O)O)n[nH]c4cc3Cl)cc2)c(O)c1 [Example 8]
RESULT: 75

QUERY: Name the reported Emax value associated with the compound N#Cc1cccc(-c2ccc(-c3cc4c(CCC(=O)O)n[nH]c4cc3Cl)cc2)c1O [Example 55]
RESULT: 45

# credit: patent US20240336572A1
